target: Lysophosphatidic acid receptor 1 (Homo sapiens, UniProt Q92633); assay: Antagonist activity at human recombinant LPA1 receptor expressed in CHOK1 cells assessed as inhibition of lysophosphatidic acid-induced intracellular calcium influx
Sequence (Q92633 whole entry): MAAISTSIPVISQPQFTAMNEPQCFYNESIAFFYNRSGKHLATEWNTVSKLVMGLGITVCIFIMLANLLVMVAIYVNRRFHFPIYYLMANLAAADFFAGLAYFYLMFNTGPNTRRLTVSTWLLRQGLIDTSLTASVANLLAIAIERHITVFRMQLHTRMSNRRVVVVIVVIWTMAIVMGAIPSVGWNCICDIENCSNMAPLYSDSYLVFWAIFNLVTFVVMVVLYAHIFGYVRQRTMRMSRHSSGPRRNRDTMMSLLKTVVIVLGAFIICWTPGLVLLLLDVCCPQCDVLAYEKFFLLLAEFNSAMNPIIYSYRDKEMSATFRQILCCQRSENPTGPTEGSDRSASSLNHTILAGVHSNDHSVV
In this section, each of the compounds is paired with its reported pIC50.
Here pIC50 is given on a logarithmic scale as minus log10 of the concentration in mol/L.

The reported pIC50 of the compound CC(OC(=O)Nc1cnoc1-c1ccc(CSCCC(=O)O)cc1)c1ccccc1Cl (stereo not given) was 6.59

The reported pIC50 of the compound CC(OC(=O)Nc1conc1-c1ccc(CSCCC(=O)O)cc1)c1ccccc1Cl (stereo not given) was 6.66

The reported pIC50 of the compound CC(OC(=O)Nc1conc1-c1ccc(NC(=O)CCC(=O)O)cc1)c1ccccc1Cl (stereo not given) was 6.85

Further cases:
The reported pIC50 of the compound CC(OC(=O)Nc1conc1-c1ccc(CSCCC(=O)O)cc1)C1=C(Cl)CCCC1 (stereo not given) was 6.77
